Just for reference, patent US7989464B2 is where these values come from.

Below is a list of entries, each paired with its recorded pIC50 value.
# measuredOn: hmGluR1 receptor (Homo sapiens)
# Construct: expressed in transfected cells
# Sequence (Q13255 19-1194): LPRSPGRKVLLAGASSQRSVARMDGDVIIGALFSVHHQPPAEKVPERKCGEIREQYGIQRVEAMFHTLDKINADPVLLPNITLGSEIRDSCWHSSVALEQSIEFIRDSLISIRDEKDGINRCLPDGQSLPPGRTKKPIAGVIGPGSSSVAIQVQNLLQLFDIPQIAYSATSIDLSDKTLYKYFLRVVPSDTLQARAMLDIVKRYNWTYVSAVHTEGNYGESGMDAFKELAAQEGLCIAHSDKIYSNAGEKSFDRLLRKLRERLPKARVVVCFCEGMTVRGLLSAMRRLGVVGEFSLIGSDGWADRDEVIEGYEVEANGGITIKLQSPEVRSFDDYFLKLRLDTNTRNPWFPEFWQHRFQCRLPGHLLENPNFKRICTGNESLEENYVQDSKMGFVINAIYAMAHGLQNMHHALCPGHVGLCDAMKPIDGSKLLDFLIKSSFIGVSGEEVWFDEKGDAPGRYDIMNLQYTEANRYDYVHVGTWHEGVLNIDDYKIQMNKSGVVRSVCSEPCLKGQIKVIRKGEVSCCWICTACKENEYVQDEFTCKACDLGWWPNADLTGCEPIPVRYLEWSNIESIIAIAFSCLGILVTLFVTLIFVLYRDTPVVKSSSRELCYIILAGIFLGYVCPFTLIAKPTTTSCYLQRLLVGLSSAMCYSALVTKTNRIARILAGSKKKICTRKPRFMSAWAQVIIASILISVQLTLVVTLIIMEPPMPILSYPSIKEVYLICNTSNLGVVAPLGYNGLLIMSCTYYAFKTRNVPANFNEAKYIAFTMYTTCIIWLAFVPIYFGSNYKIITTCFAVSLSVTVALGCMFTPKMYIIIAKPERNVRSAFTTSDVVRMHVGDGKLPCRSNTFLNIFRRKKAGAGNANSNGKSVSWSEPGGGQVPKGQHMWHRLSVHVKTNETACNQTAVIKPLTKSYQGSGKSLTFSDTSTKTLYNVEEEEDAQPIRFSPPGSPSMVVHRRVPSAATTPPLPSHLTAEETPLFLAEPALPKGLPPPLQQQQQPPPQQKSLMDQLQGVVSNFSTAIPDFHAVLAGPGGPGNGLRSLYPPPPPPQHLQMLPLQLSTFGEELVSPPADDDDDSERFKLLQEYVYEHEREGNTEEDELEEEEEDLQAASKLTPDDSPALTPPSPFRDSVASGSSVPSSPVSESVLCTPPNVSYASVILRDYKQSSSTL
# assayDetails: IC50 determination: intracellular calcium mobilization (FLIPR) upon Quisqualate stimulation in CHO cells stably expressing hmGluR1
# Format: cell-based
# conditionsUsed: against Quisqualate 1 μM (EC80), FLIPR calcium mobilization, read-out: IC50 Class
pIC50: −log10 of the molar value.

For orientation, consider the following solved cases.
compound: COCCCNc1ccnc2sc3c(=O)n(-c4ccc(OC)cc4)cnc3c12 [28HL]
measurementLabel: pIC50
value: > 7.30
//
compound: CC(O)CCNc1ccnc2sc3c(=O)n(-c4ccc(F)cc4)cnc3c12 (stereo not shown) [28HN]
measurementLabel: pIC50
value: > 7.30
//
compound: COCCNc1ccnc2sc3c(=O)n(-c4ccc(Cl)cc4)cnc3c12 [28GK]
measurementLabel: pIC50
value: > 7.30

# evaluate next
So what's the measured pIC50 for this one? C=CCNc1ncnc2sc3c(=O)n(-c4ccc(Br)cc4)cnc3c12 [95BO]
> 7.30

* * *

Below is a list of entries, each paired with its recorded IC50 value.
# measuredOn: hmGluR1 receptor (Homo sapiens)
# Construct: expressed in transfected cells
# assayDetails: IC50 determination: intracellular calcium mobilization (FLIPR) upon Quisqualate stimulation in CHO cells stably expressing hmGluR1
# Assay type: cell-based
# conditionsUsed: against Quisqualate 1 μM (EC80), FLIPR calcium mobilization, read-out: IC50 Class

So what IC50 did Cc1ccc(-n2cnc3c(sc4ncc(C(=O)N(C)C)cc43)c2=O)cc1 [205A] get with hmGluR1 receptor (Homo sapiens)?
> 1000 nM

* * *

# measuredOn: hmGluR1 receptor (Homo sapiens)
# Construct: expressed in transfected cells
# assayDetails: IC50 determination: intracellular calcium mobilization (FLIPR) upon Quisqualate stimulation in CHO cells stably expressing hmGluR1
# Format: cell-based
# conditionsUsed: against Quisqualate 1 μM (EC80), FLIPR calcium mobilization, read-out: IC50 Class
pIC50: −log10 of the molar value.
Below is a list of entries, each paired with its recorded pIC50 value.

For orientation, consider the following solved cases.
compound: COc1ccc(-n2cnc3c(sc4nccc(NC5CC5)c43)c2=O)cc1F [28HE]
measuredOn: hmGluR1 receptor (Homo sapiens)
value: > 7.30
//
compound: Cc1ccc(-n2cnc3c(sc4nc(N5CCCC5)nc(N)c43)c2=O)cc1 [71C]
measuredOn: hmGluR1 receptor (Homo sapiens)
value: < 6.00
//
compound: Cc1ccc(-n2cnc3c(sc4nccc(NCCCCO)c43)c2=O)cc1 [28CT]
measuredOn: hmGluR1 receptor (Homo sapiens)
value: > 7.30
//
compound: Cc1noc2cc(F)c(-n3cnc4c(sc5nccc(N(C)C)c54)c3=O)cc12 [28EL]
measuredOn: hmGluR1 receptor (Homo sapiens)
value: < 6.00

So what's the measured pIC50 for this one? C#CC(C)Nc1ccnc2sc3c(=O)n(-c4ccc(OC)cc4)cnc3c12 (centres unmarked) [28FA]
6.00 to 6.82

So what's the measured pIC50 for this one? C=CCc1ccnc2sc3c(=O)n(-c4ccc(Cl)cc4)cnc3c12 [178A]
6.82 to 7.30

So what's the measured pIC50 for this one? CN(C)c1cccc2sc3c(=O)n(-c4cccc(Cl)c4)cnc3c12 [103H]
< 6.00

So what's the measured pIC50 for this one? `CC(=O)c1ccnc2sc3c(=O)n(-c4ccc(Cl)cc4)cnc3c12`
6.82 to 7.30

So what's the measured pIC50 for this one? Cc1ccc(-n2cnc3c(sc4nccc(NC(C)(C)CO)c43)c2=O)cc1 [28EX]
6.82 to 7.30

So what's the measured pIC50 for this one? O=c1c2sc3nccc(NCCCO)c3c2ncn1-c1ccc(F)cc1 [28GP]
> 7.30

So what's the measured pIC50 for this one? CN(C)c1cccc2sc3c(=O)n(-c4ccc(F)c(F)c4)cnc3c12 [103P]
6.00 to 6.82

So what's the measured pIC50 for this one? CCOC(=O)C1CCCC(n2cnc3c(sc4nccc(OC)c43)c2=O)C1 (centres unmarked) [28EK]
< 6.00

So what's the measured pIC50 for this one? C=CCNc1ccnc2sc3c(=O)n(-c4ccc(F)cc4)cnc3c12 [28EC]
> 7.30

So what's the measured pIC50 for this one? C#CCNc1ncnc2sc3c(=O)n(-c4ccc(F)cc4)cnc3c12 [95ER]
> 7.30

So what's the measured pIC50 for this one? CCc1ccc(-n2cnc3c(sc4nccc(N(C)CC)c43)c2=O)cc1 [28BS]
> 7.30

So what's the measured pIC50 for this one? CCc1ccc(-n2cnc3c(sc4nccc(NC5CC5)c43)c2=O)cc1 [28BT]
6.82 to 7.30
